- Test system: lambsquarters
- Assay protocol: Test B pre-/postemergence herbicide test
- Assay type: in vivo, Chenopodium album
- Experimental parameters: postemergence, 125 g ai/ha; scale 0 to 100
Label scheme for Lambsquarters plant response rating: lower than 40 is -1, 40 and above is 1.

Challenge: Is Lambsquarters plant response rating at least 40? Consider CCc1nn(C(C)C)nc1C(=S)Nc1cccc(C(=S)N(C)C)c1 [Compound 410]
Response given: -1

Challenge: Answer whether Lambsquarters plant response rating of CCN(CC)C(=O)c1ccnc(NC(=O)c2nn(C(C)(C)C)nc2C)c1 [Compound 425] is greater than or equal to 40.
Response given: 1

Challenge: Decide: Lambsquarters plant response rating of C=Cc1nn(C(C)(C)C)nc1C(=O)Nc1cccc(C(=O)N(C)C)c1 [Compound 445] >= 40?
Response given: 1

Challenge: Please check the record CCNC(=O)c1cncc(NC(=O)c2nn(C(C)(C)C)nc2C)c1 [Compound 427] and state if its Lambsquarters plant response rating is at or above 40.
Response given: -1

Challenge: Identify whether the reported Lambsquarters plant response rating of the following molecule is 40 or greater: CCOC(=O)c1cncc(NC(=O)c2nn(C(C)(C)C)nc2C)c1 [Compound 422]
Response given: -1

---

- System: lambsquarters
- Assay protocol: Test B pre-/postemergence herbicide test
- Format: in vivo, Chenopodium album
- Experimental parameters: 125 g ai/ha; visual rating, scale 0 (no effect) to 100 (complete control); postemergence
Quantity: Lambsquarters plant response rating
Answer using only a numeral; do not append any unit.

The molecule listed as CCC1=NN(C(C)(C)C)CC1C(=O)Nc1cc(C(=O)N(C)C)ccc1F (racemic) has a reported Lambsquarters plant response rating of 40

The reported value for CCc1nn(C(C)(C)C)nc1C(=O)Nc1cccc(C(=S)N(C)C)c1 in terms of Lambsquarters plant response rating is 80

Item: CCc1nn(C(C)(C)C)nc1C(=O)Nc1cccc(C(=O)N2CC=CC2)c1 | Lambsquarters plant response rating: 80

Quick note, Lambsquarters plant response rating for CCc1nn(C(C)(C)CC)nc1C(=O)Nc1cc(C(=O)N(C)C)ccc1F landed at 50

Query CCc1nn(C(C)(C)C)cc1C(=O)Nc1cc(C(=O)N(C)C)ccn1 yields Lambsquarters plant response rating of 50

Kindly note the recorded Lambsquarters plant response rating for CCNC(=O)c1ccc(F)c(NC(=O)c2nn(C(C)(C)C)nc2CC)c1 , which is 10

For record CCc1nn(C(C)(C)C)nc1C(=O)Nc1cccc(C(=O)N(C)CC)c1 the listed Lambsquarters plant response rating is 70

---

I'd be grateful if you could share measured Plant response rating, Surinam Grass for these entries.
- System: Surinam grass
- Assay protocol: Test B pre-/postemergence herbicide test
- Format: in vivo, Urochloa decumbens
- Experimental parameters: 500 g ai/ha; visual rating, 0 = no effect, 100 = complete control; preemergence

Recorded Plant response rating, Surinam Grass (compound CCn1nc(C(C)(C)C)cc1C(=O)Nc1cc(OC)ccc1OC ): 20

Recorded result, CCc1nc(C(C)(C)C)sc1C(=O)Nc1cc(C(=O)N(CC)CC)ccc1F , Plant response rating, Surinam Grass: 10

Recorded result, CCOC(=O)c1cc(NC(=O)c2cc(C(C)(C)C)nn2CC)c(F)cc1F , Plant response rating, Surinam Grass: 30

According to the records, this compound CCc1nn(C(C)(C)C)cc1C(=O)Nc1ccc(F)c(C(=O)N(CC)CC)c1 displays Plant response rating, Surinam Grass of 20

The reported Plant response rating, Surinam Grass of the compound CCN(C)C(=O)c1ccc(F)c(NC(=O)C2CC(C(C)(C)C)=NN2CC)c1 (racemic) was 90

---

Task for the reader: assign each of the following compounds its reported Plant response rating, Lambsquarters.
- Test system: lambsquarters
- Assay protocol: Test C pre-/postemergence herbicide test
- Assay type: in vivo, Chenopodium album
- Experimental parameters: 125 g ai/ha; scale 0 (no effect) to 100 (complete control); visual, 12 to 14 days; preemergence
Keep it simple and answer with nothing but the number.

# Plant response rating, Lambsquarters of CCn1nc(C(C)(C)C)cc1C(=O)Nc1cccc2c1CCN(C1CC1)C2=O = 0

response.value for CCn1nc(C(C)(C)C)cc1C(=O)Nc1cccc(OC(F)F)c1 (field: Plant response rating, Lambsquarters) = 100

Please fill in: Plant response rating, Lambsquarters reported for CCc1nn(C(C)(C)C)cc1C(=O)Nc1cc(C(=O)N(C)C)ccn1 = 100

Lab book: Plant response rating, Lambsquarters of CCCN1CCc2c(NC(=O)c3cc(C(C)(C)C)nn3CC)cccc2C1=O noted as 95

---

- System: quackgrass
- Assay protocol: Test E pre-/postemergence herbicide test
- Type: in vivo, Elytrigia repens
- Experimental parameters: Preemergence, 125 g ai/ha; scale 0 to 100
Quantity: Plant response rating, Quackgrass
In your answer, state the number alone without any accompanying words.

CCNC(=O)c1cccc(NC(=O)c2nn(C(C)(C)C)nc2C)c1 [Compound 392] has a reported Plant response rating, Quackgrass of 60

Documented Plant response rating, Quackgrass of CCc1nn(C(C)(C)C)nc1C(=O)Nc1cccc(C(=S)N(C)C)c1 [Compound 395] : 80

Input CCc1nn(C(C)(C)C)cc1C(=O)Nc1cc(C(=O)N(C)C)ccn1 [Compound 293] . Output Plant response rating, Quackgrass: 70

Plant response rating, Quackgrass in this record for CCc1nn(C(C)(C)C)nc1C(=O)Nc1cccc(C(=O)N(C)CC)c1 [Compound 384] : 70

---

- System: ducksalad
- Assay protocol: Test C flooded paddy test
- Assay type: in vivo, Heteranthera limosa
- Experimental parameters: 62 g ai/ha, scale 0 to 100
Consider the following compounds; for each one, report its Ducksalad plant response rating.
Note: the reply should be a number with no unit written.

Entry CCc1nn(C(C)(C)C)nc1C(=O)Nc1cccc(C(=S)N(C)C)c1 ; Ducksalad plant response rating = 15

CCn1nc(C(C)(C)C)cc1C(=O)Nc1cncc(C(=O)N(C)C)c1 yielded Ducksalad plant response rating of 15

Sample CCn1nc(C(C)(C)C)cc1C(=O)Nc1cc(C(=S)N(C)C)ccc1F ; Ducksalad plant response rating observed: 90

The recorded Ducksalad plant response rating for entry CCn1nc(C(C)(C)C)cc1C(=O)Nc1cc(C(=S)N(C)C)ccn1 equals 75

The compound listed as CCOC(=O)c1cccc(NC(=O)c2cc(C(C)(C)C)nn2C)n1 has a reported Ducksalad plant response rating of 0

The recorded Ducksalad plant response rating for entry CCN(C)C(=O)c1cncc(NC(=O)c2cc(C(C)(C)C)nn2CC)c1 equals 0

Looking up CCn1nc(C2(C)CC2)cc1C(=O)Nc1cccc(C(=O)N(C)C)c1 , I see its Ducksalad plant response rating listed as 55

Memo: CCC1=NN(C(C)(C)C)CC1C(=O)Nc1cc(C(=O)N(C)C)ccc1F (racemic) , reported Ducksalad plant response rating: 40

---

- Test system: ducksalad
- Assay protocol: Test C flooded paddy test
- Assay type: in vivo, Heteranthera limosa
- Experimental parameters: 500 g ai/ha, visual rating after 12 to 14 days, scale 0 to 100 (0 no effect, 100 complete control)
Quantity: Plant response rating, Ducksalad

compound Cc1nn(C(C)C)nc1C(=O)Nc1cccc(C(=O)N2CC=CC2)c1 [Compound 406] , Plant response rating, Ducksalad observed: 75

For reference, reported Plant response rating, Ducksalad for CCn1nc(C(C)(C)C)cc1C(=O)Nc1cccc(SC)c1 [Compound 131] stands at 80

For this compound ( CCn1nc(C(C)(C)C)cc1C(=O)Nc1cccc(C(=O)N2CCOCC2)n1 [Compound 247] ), measured Plant response rating, Ducksalad is 80

Plant response rating, Ducksalad in this record for CCOC(=O)c1cccc(NC(=O)c2cc(C(C)(C)C)nn2CC)c1C [Compound 88] : 75

Memo: CCCN1CCc2c(NC(=O)c3cc(C(C)(C)C)nn3CC)cccc2C1=O [Compound 65] , reported Plant response rating, Ducksalad: 85

---

- Test system: giant foxtail
- Assay protocol: Test B pre-/postemergence herbicide test
- Assay type: in vivo, Setaria faberi
- Experimental parameters: postemergence, 125 g ai/ha; visual rating, scale 0 (no effect) to 100 (complete control)
Please provide measured Foxtail, Giant plant response rating for the entries that follow.
I'd appreciate a reply containing only the number, no unit.

Notebook: C=CCNC(=O)c1cccc(NC(=O)c2sc(C(C)(C)C)nc2CC)c1 [Compound 207] , Foxtail, Giant plant response rating read as 20

Lookup result for CCC(C)c1cc(C(=O)Nc2cccc(C(C)=NO)c2)n(C)n1 (centres unmarked) [Compound 120] ; measured Foxtail, Giant plant response rating: 10

Kindly note the recorded Foxtail, Giant plant response rating for CCn1nc(C(C)(C)C)cc1C(=O)Nc1cccc(C(N)=O)n1 [Compound 162] , which is 20

Memo: C=Cn1nc(C(C)(C)C)cc1C(=O)Nc1cccc(C(C)=O)c1 [Compound 127] , reported Foxtail, Giant plant response rating: 20

Briefly, Foxtail, Giant plant response rating measured for CCn1nc(C(C)(C)C)cc1C(=O)Nc1cccc(C(=O)N2CCOCC2)n1 [Compound 247] : 10
